- System: central effects of 5-hydroxytryptophan
- assayOverview: Potentiation of the central effects of 5-hydroxytryptophan (5-HTP)
- Assay type: in vivo
- studyConditions: Mus musculus, ip; Swiss mice, I.P., 30 minutes before 300 mg/kg 5-HTP I.P.; observed 30 min later for 1 min; read-out: Potentiation of the 5-HTP ED50 DE50
Counter-ions that a name gives are not always drawn.
ED50 for assorted compounds
propertyLabel: ED50 (mg/kg)

compound="O=c1c2ccccc2nnn1CCCN1CCN(c2ccccc2Cl)CC1 [Example 6, hydrochloride]" propertylabel=ED50 valuemeasured=12
compound="O=c1c2ccccc2nnn1CCCN1CCN(c2ccccc2)CC1 [Example 11, hydrochloride]" propertylabel=ED50 valuemeasured=8
compound="Cc1ccccc1N1CCN(CCCn2nnc3ccccc3c2=O)CC1 [Example 9, hydrochloride]" propertylabel=ED50 valuemeasured=5
compound="COc1ccc(N2CCN(CCCn3nnc4ccccc4c3=O)CC2)cc1OC [Example 29, dihydrochloride]" propertylabel=ED50 valuemeasured=12
